The measurements presented in this section are drawn from patent US20240385190A1.

studyTarget: human EphA4 ligand binding domain-MBP-His protein (human, UniProt P54764 20-209; P0AEX9 29-392 = MBP)
methodNotes: ELISA
measuredAttribute: absorbance

INSERT INTO assay_data (binder, measvalue) VALUES
  ('KPEP11_05 (antibody, V domains shown, Rabbit IgG; also called anti-human EphA4 rabbit monoclonal antibody KPEP11_05) VH: QSLEESGGRLVTPGGSLTLTCTVSGIDLSSYAMSWVRQAPEKGLEWIGFINNYGTYYASWAKGRFTISKTSTTVDLKVTSLTTEDTATYFCVRGGRSPNYDIVSGDIWGPGTLVTVSS VL: YVMMTQTPSSVSEPVGGTVTIKCQASQNIYNSLAWYQQKPGQRPKLLIADASELASGVPQRFSGSGSGTQFTLTISDLECADAATYYCQSSSAGDSYVGGFGGGTEVVVKG', 1.32),
  ('KPEP11_20 (antibody, V domains shown, Rabbit IgG; also called anti-human EphA4 rabbit monoclonal antibody KPEP11_20) VH: QSLEESGGRLVTPGTPLTLTCTVSGFSLNNYYMNWVRQAPGKGLEWIGIIYPDIDTTDYASWVKGRFTISKTSTTVDLKITSPTTEDTATYFCARSDIDYYTTRLDLWGQGTLVTISS VL: AQVLTQTPSPVSAAVGGTVSINCQSSPSVYNNNWLSWFQQKPGQPPKLLIYGASTLASGVPSRFKGSGSGTQFTLTISDVQCDDAATYYCAGGYDSNSDTAFGGGTELEILG', 1.42),
  ('KPEP11_07 (antibody, V domains shown, Rabbit IgG; also called anti-human EphA4 rabbit monoclonal antibody KPEP11_07) VH: QEQLKESGGRLVTPGGSLTLTCTVSGIDLSSYAMSWVRQAPEKGLEWIGFINMYGTYYASWAKGRFTISRTSTTVDLKVTSLTTEDTATYFCVRGGRSPDYDIVSGDIWGPGTLVTVSS VL: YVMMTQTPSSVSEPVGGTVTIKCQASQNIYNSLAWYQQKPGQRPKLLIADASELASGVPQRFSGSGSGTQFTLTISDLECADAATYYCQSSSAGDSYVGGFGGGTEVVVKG', 1.39),
  ('KPEP11_02 (antibody, V domains shown, Rabbit IgG; also called anti-human EphA4 rabbit monoclonal antibody KPEP11_02) VH: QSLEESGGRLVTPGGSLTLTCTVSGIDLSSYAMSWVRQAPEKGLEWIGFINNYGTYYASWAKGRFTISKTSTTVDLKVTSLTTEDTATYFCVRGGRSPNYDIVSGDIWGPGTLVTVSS VL: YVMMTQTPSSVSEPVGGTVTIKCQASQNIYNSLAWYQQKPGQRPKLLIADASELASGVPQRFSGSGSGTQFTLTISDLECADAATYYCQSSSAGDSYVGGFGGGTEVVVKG', 1.32),
  ('KPEP11_04 (antibody, V domains shown, Rabbit IgG/kappa; Used HRP-labeled as detection antibody in the sandwich ELISAs; also called anti-human EphA4 rabbit monoclonal antibody KPEP11_04; HRP-labeled KPEP11_04) VH: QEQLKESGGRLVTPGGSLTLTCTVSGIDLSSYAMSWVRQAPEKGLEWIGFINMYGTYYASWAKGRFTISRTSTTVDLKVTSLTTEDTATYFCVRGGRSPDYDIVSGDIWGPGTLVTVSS VL: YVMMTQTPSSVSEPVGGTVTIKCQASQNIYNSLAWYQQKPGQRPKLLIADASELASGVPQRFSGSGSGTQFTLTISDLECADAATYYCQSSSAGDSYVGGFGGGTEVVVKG', 1.33);
